viability, T/C values, listed per item
# Tested on: MDA-MB-468 spheroids with HUVEC/MSC, viability
# Protocol summary: Anticancer human tumor MDA-MB-468 cell line growth inhibition [PI3K];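 further: spheroids exposed to agents for seven days before readout; 100% = DMSO vehicle control viability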
# Measurement context: second compound 0.316 µM; first compound 0.3 µM; active compounds read low
Please give a number only; it is taken to be in %.

{"Compound": "Cn1cnc2c(F)c(Nc3ccc(Br)cc3Cl)c(C(=O)NOCCO)cc21 + CC(Nc1ncnc2nc[nH]c12)c1cc2cccc(Cl)c2c(=O)n1-c1ccccc1", "Measurement units": "%", "Assay result": 92.5}

query: Requested read-out viability, T/C, target or system MDA-MB-468 spheroids with HUVEC/MSC, viability, entry Cn1cnc2c(F)c(Nc3ccc(Br)cc3Cl)c(C(=O)NOCCO)cc21 + Cc1nc(NC(=O)N2CCCC2C(N)=O)sc1-c1ccnc(C(C)(C)C(F)(F)F)c1
result: 74.5

query: Give the reported viability, T/C for Cn1cnc2c(F)c(Nc3ccc(Br)cc3Cl)c(C(=O)NOCCO)cc21 + COc1c(OCCCN2CCOCC2)ccc2c3n(c(=NC(=O)c4cnc(N)nc4)nc12)CCN3 (system: MDA-MB-468 spheroids with HUVEC/MSC, viability).
result: 16.4

query: Give the reported viability, T/C for Cn1cnc2c(F)c(Nc3ccc(Br)cc3Cl)c(C(=O)NOCCO)cc21 + CC(Nc1ccc2c(c1)OCCn1cc(N3C(=O)OCC3C(F)F)nc1-2)C(N)=O (system: MDA-MB-468 spheroids with HUVEC/MSC, viability).
result: 67

====

# Test system: MDA-MB-468 spheroids with HUVEC/MSC, viability
# Protocol summary: Anticancer human tumor MDA-MB-468 cell line growth inhibition [PI3K]; active = viability on the fitted dose curve at most 10% of control; inactive = the rest;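 further: spheroids exposed to agents for seven days before readout; 100% = DMSO vehicle control viability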
# Measurement context: second compound 0.1 µM; first compound 3.16 µM
Pick from active, inactive when you respond.

{"Compound": "CC1(C)CCC(CN2CCN(c3ccc(C(=O)NS(=O)(=O)c4ccc(NCC5CCOCC5)c([N+](=O)[O-])c4)c(Oc4cnc5[nH]ccc5c4)c3)CC2)=C(c2ccc(Cl)cc2)C1 + COc1c(OCCCN2CCOCC2)ccc2c3n(c(=NC(=O)c4cnc(N)nc4)nc12)CCN3", "Label class": "inactive"}

query: Answer briefly: the call reported for CC1(C)CCC(Nc2ncc(C(F)(F)F)c(-c3c[nH]c4c(P(C)(C)=O)c(C#N)ccc34)n2)CN1 (stereo not given) + Cc1nc(NC(=O)N2CCCC2C(N)=O)sc1-c1ccnc(C(C)(C)C(F)(F)F)c1 in this assay.
result: active

query: Recorded test outcome, item C[C@@H](NC(=O)c1ncnc(N)c1Cl)c1ncc(C(=O)Nc2cc(C(F)(F)F)c(Cl)cn2)s1 + CC(Nc1ccc2c(c1)OCCn1cc(N3C(=O)OCC3C(F)F)nc1-2)C(N)=O
result: inactive

query: Dear all, I need the recorded test outcome for CC1(C)CCC(CN2CCN(c3ccc(C(=O)NS(=O)(=O)c4ccc(NCC5CCOCC5)c([N+](=O)[O-])c4)c(Oc4cnc5[nH]ccc5c4)c3)CC2)=C(c2ccc(Cl)cc2)C1 + Cc1nc(NC(=O)N2CCCC2C(N)=O)sc1-c1ccnc(C(C)(C)C(F)(F)F)c1 , thank you.
result: inactive

query: Called result for Cn1nccc1Nc1nccc(-c2ccn(C(CO)c3ccc(Cl)c(F)c3)c(=O)c2)n1 (stereo not given) + COc1c(OCCCN2CCOCC2)ccc2c3n(c(=NC(=O)c4cnc(N)nc4)nc12)CCN3
result: inactive

These data points were gathered from PubChem BioAssay AID1963960.
